Record: compiled IC50 on Serine protease 1 (Homo sapiens, UniProt P07477) from multiple reports.
Sequence (P07477 whole entry): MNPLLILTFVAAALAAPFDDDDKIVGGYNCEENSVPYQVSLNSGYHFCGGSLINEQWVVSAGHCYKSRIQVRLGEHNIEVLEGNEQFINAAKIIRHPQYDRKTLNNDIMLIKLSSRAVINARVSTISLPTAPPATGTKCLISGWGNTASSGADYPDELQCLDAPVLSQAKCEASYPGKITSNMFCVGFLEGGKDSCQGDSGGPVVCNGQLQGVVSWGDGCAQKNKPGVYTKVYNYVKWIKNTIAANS
Give your result in µM as a bare value.

Below, each entry is followed by its recorded IC50 result.
N=C(N)c1cccc(C[C@H](NC(=O)[C@@H]2CC[C@H]3CN(C(=O)CCc4ccccc4)CC(=O)N32)C(=O)c2nccs2)c1: 7.75
COc1ccc2ccc(S(=O)(=O)NC(Cc3cc4c(N)nccc4s3)C(=O)N3CCC(C(C)=O)CC3)cc2c1 (stereo not drawn): 2
COc1cc(C(=O)N2C[C@@H](n3cc(C4CC4)nn3)C[C@H]2C(=O)NCCc2ccccc2)ccc1CN: 0.16

Turning now to a further record.
Task item: For Serine protease 1 (Homo sapiens, UniProt P07477), give IC50 of the listed compound: CCOC(=O)c1ccc(CCOC(=O)N[C@H](CC2CCN(C(=N)N)CC2)C(=O)NCC(=O)N[C@H]2CCCN(C(=N)N)C2O)cc1 (stereo partly drawn)
Reply: 0.158

* * *

Record: compiled IC50 on Serine protease 1 (Homo sapiens, UniProt P07477) from multiple reports.
Give your result in nM as a bare value.

Below, each entry is followed by its recorded IC50 result.
N=C(N)NCCC[C@H](NC(=O)[C@@H]1CC[C@H]2CN(C(=O)CCc3ccccc3)CC(=O)N21)C(=O)c1ccccn1: 160
N=C(N)N1CCC[C@H](NC(=O)CN2CCCC[C@H](NS(=O)(=O)Cc3ccccc3C(=O)OCC3CCCCC3)C2=O)C1O (stereo partly specified): 135

Task item: For Serine protease 1 (Homo sapiens, UniProt P07477), give IC50 of the listed compound: CC(=C(F)C(=O)Nc1ccc(-c2ccccc2S(N)(=O)=O)cc1Br)c1cccc(C(=N)N)c1
Reply: 189

Task item: For Serine protease 1 (Homo sapiens, UniProt P07477), give IC50 of the listed compound: N=C(N)N1CCC[C@@H](C[C@H](NC(=O)CN2C(=O)CN(CCCc3ccccc3)C(=O)[C@H]2Cc2ccccc2)C(=O)c2nccs2)C1
Reply: 9100

Task item: For Serine protease 1 (Homo sapiens, UniProt P07477), give IC50 of the listed compound: CCCCN1CC(=O)N(CC(=O)N[C@@H](CC2CCCN(C(=N)N)C2)C(=O)c2nccs2)[C@H](Cc2ccccc2)C1=O (stereo partly specified)
Reply: 15000

Task item: For Serine protease 1 (Homo sapiens, UniProt P07477), give IC50 of the listed compound: CC(C)(C)OC(=O)N[C@H](Cc1ccccc1)C(=O)N1CCC[C@@H]1C(=O)N[C@H](C=O)CCCNC(=N)N
Reply: 3

Task item: For Serine protease 1 (Homo sapiens, UniProt P07477), give IC50 of the listed compound: CCCOC(=O)c1ccccc1CS(=O)(=O)N[C@H]1CCCCN(CC(=O)N[C@H]2CCCN(C(=N)N)C2O)C1=O (stereo partly specified)
Reply: 79.8

Task item: For Serine protease 1 (Homo sapiens, UniProt P07477), give IC50 of the listed compound: Cc1csc(C(=O)C(CCCNC(=N)N)NC(=O)[C@@H]2CC[C@H]3CN(C(=O)CCc4ccccc4)CC(=O)N32)n1 (stereo partly specified)
Reply: 24

Task item: For Serine protease 1 (Homo sapiens, UniProt P07477), give IC50 of the listed compound: N=C(N)c1cccc(C(=O)N[C@@H](C(=O)Nc2ccc(-c3ccccc3S(N)(=O)=O)cc2)c2ccccc2)c1
Reply: 1770
